Quick reference for melting point among some compounds

CC(CCOc1cccc(=O)n1O)CC(C)(C)C (stereo not given) : 130 to 131 °C
CC(C)(C)Oc1ccc2cc(C=O)ccc2c1 : 51 to 52 °C
O=C(c1ccncc1)c1cc(-c2cccnc2)c(N2CCOCC2)s1 : 128 °C
COc1cc(C=O)ccc1OCc1nc(-c2cccnc2)oc1C : 164 to 165 °C
C[C@@H](C(=O)OCCCCNc1cccc2c1C(=O)c1ccccc1C2=O)N(C)C(=O)OC(C)(C)C : 62 °C
O=c1c(O)c(C#Cc2ccccc2)oc2ccccc12 : 153 to 154 °C

In the following, a different compound is considered.
Item COC(=O)CCc1cc2cc(C(C)=O)ccc2n1S(=O)(=O)c1ccccc1 has what recorded melting point?
122 to 127 °C

* * *

Quick reference for melting point among some compounds

NS(=O)(=O)c1ccc(OCCOc2ccc(C(=O)C(=O)O)cc2)cc1 : 178 to 179 °C

Item Cc1ccc(S(=O)(=O)N2C(=O)N(c3ccc(Cl)cc3)C(C)(O)C2O)cc1 (centres undefined) has what recorded melting point?
60 to 70 °C

What about C=CCN1CCc2cc(OC[C@H]3CO[C@](Cn4ccnc4)(c4ccc(Cl)cc4Cl)O3)ccc2C1 (racemic) ?
94 to 95 °C

* * *

Quick reference for melting point among some molecules

COc1cc(NC(=O)NS(=O)(=O)c2ccccc2C)nc(OC)n1 : 174 to 175 °C
CC(C)[C@H](NC(=O)OCc1ccccc1)C(=O)NC(Cc1ccccc1)C(O)C(N)Cc1ccccc1 (stereo not given in full) : 158 to 160 °C
CN1C(=O)CN(C=O)C(c2ccccc2)c2cc(Cl)ccc21 (stereo not given) : 167 to 169 °C
COc1ccc(-c2cc(NC(=O)CCCCN3CCCN(C(C)=O)CC3)n[nH]2)cc1 : 132 to 133 °C
O=C(O)C(=Cc1cc(C(=O)O)c(=O)n2ccccc12)C(=O)O : > 250 °C
CSc1cc(C)nc(SC)c1NC(=O)CCCCSc1nc2ccccc2s1 : 121 to 123 °C
CC(C)(NC(=O)c1nc2ccc(NCCCN3CCC(OC(c4ccccc4)c4ccccc4)CC3)nn2n1)C(=O)O : 247 to 249 °C
O=Cc1cc(Br)ccc1N1CC=CC1 : 88.2 to 89.2 °C
OC1CSC(Oc2cc(-c3cccnc3)ccc2F)C(O)C1O (stereo not given) : 100 °C

Item CCC1(c2ccc(Cl)cc2)OCc2c1cnc(CN(C)C)c2O (stereo not given) has what recorded melting point?
151 °C

* * *

Quick reference for melting point among some compounds

COC(=O)C(C#N)(CCCN(C)CCc1ccc(OC)c(OC)c1)c1ccc(OC)c(OC)c1 (stereo not given) : 129 to 130 °C
CCOC(=O)c1cc(O)cc(OCC)c1 : 62 to 63 °C
COc1ccc(CCc2cc(OC)c(OC)cc2C)cc1OC : 102 °C
COc1ccc(P2(=O)c3ccccc3CN2c2ccccc2)cc1 (stereo not given) : 190 to 192 °C
CC1(C)CCC(C)(C)c2cc(C(=O)c3ccc(C(=O)O)cc3)c(OCc3ccccc3)cc21 : 212 to 213 °C
CCCn1cc(Cc2ccc(C(=O)O)cc2OC)c2cc(C=CCCC(=O)N(C)C)ccc21 : 151 to 153 °C
Cc1cc(N)nc(CCc2nc3cc(-c4ccc(C#N)cc4)cnc3[nH]2)c1 : 218 °C
COC(=O)C(C)(C)S(=O)(=O)N1CCC(c2ccc(-c3cccc(OCCO)n3)c(C)c2)CC1 : 108 to 111 °C
CCOC(=O)c1ccc2cc(OC(=S)N(C)C)ccc2c1 : 128 to 130 °C

Item Cc1ccsc1-c1nc(-c2c(F)cccc2Cl)nn1C has what recorded melting point?
80 to 82 °C

* * *

Quick reference for melting point among some compounds

// known answers, use as guide
CCC1(CC)OC(=O)Nc2ccc(Br)cc21 : 150 to 152 °C
COc1cc2c(Nc3ccc(Cl)cc3F)ncnc2cc1OCC1CCOC1 (configuration not stated) : 201 to 202 °C

In the following, a different compound is considered.
Item CC(C#Cc1cccc(C=Cc2ccccn2)c1)N(O)C(N)=O (configuration not stated) has what recorded melting point?
122 to 126 °C

* * *

Quick reference for melting point among some compounds

// known answers, use as guide
CSc1ccc(CSc2nnc(-c3ccc4[nH]ncc4c3)o2)cc1C(F)(F)F : 184 to 185 °C
CCCCCCCCCCNC(=O)Nc1ccccc1C(=O)NC1CCN(C(c2ccccc2)c2ccccc2)CC1 : 204 to 206 °C
COc1cc2ncc(C(=O)O)c(Nc3cccc(Br)c3)c2cc1OC : 282 to 285 °C

Item COc1ccc(N2CCN(c3ccc(-n4cnn([C@H](C)[C@@]5(c6ccc(F)cc6F)CO5)c4=O)cc3)CC2)cc1 has what recorded melting point?
175 to 176 °C

What about CC(C)[C@H](NC(=O)OCc1ccccc1)C(=O)N[C@@H](Cc1ccccc1)C(=O)C[C@@H]1CCCC[C@H]1C(=O)NC(C)(C)C ?
186 to 188 °C

What about COc1cc(S(N)(=O)=O)cnc1N=Nc1cc(OC(C)C)c2ccccc2c1O ?
289 °C

What about CCc1ccc(Nc2nc3cc(NC(=O)c4cc(OC)c(OC)c(OC)c4)ccc3o2)cc1 ?
> 250 °C

What about COC(=O)CCc1ccc(OCCN(C)c2nc3ccccc3o2)cc1 ?
51 to 52 °C

What about CS(=O)(=O)c1ccc(-c2cc(CCO[N+](=O)[O-])nn2C2CCCCC2)cc1 ?
117 °C

What about Cc1nc2ccc(OC(F)(F)F)cc2[nH]1 ?
135 to 137 °C

What about Cc1cc(C(=O)O)cc(C)c1C(=O)O ?
> 300 °C

What about Cn1cc(-c2ccc3nc(NC(=O)c4ccc(C(C)(C)C)nc4)cn3c2)cn1 ?
228 to 230 °C

What about O=C(O)CP(=O)(O)CCc1ccccc1 ?
120 to 121 °C

What about C=C(C#N)CN1CCC(C(N)=O)CC1 ?
127 to 129 °C

What about Cn1cccc1C(=O)C(C#N)C(=O)Nc1c(Cl)cccc1Cl (stereo not given) ?
196 to 199 °C

What about Nc1ccc(-c2nc(N3CCOCC3)c3sc(C(=O)NCC4CCN(c5ncc(C(=O)NO)cn5)CC4)cc3n2)cc1 ?
232 to 238 °C

What about CN1CCCC1=Cc1ccc(Cl)cc1 ?
63 °C

* * *

VALUE_KIND: melting point

Cn1cnc2c1ccn1c(=O)c(-c3ccc(OCc4ccccc4)cc3)cc(C(=O)O)c21 : 227 to 229 °C
N#CCCCSc1nccc(NC(N)=NCC(F)(F)F)n1 : 137 °C
C(=Cc1ccccc1)COC(CCc1ccccc1)Cn1ccnc1 (stereo not given) : 116 to 119 °C
CO/C=C(/C(=O)OC)c1ccccc1Br : 68 to 69 °C
Clc1cc(Cl)cc(-c2nc(Cl)c3ccccc3n2)c1 : 274 °C

In the following, a different compound is considered.
Item CCc1cc(=O)c(C(=O)OC)c(CC)[nH]1 has what recorded melting point?
124 to 127 °C

* * *

VALUE_KIND: melting point

// known answers, use as guide
NC(=O)c1cc(F)cc(-c2cccc3cc(Cc4cc(F)cc(Cl)c4)sc23)c1 : 186 to 187 °C
Cc1nnc2n1-c1sc3c(c1C(c1ccccc1Cl)=NC2)CCN(C(=S)Nc1ccccc1C(F)(F)F)C3 : 190 to 192 °C
CC(=O)C(C(=O)OC(C)(C)C)C(=O)c1ccc(C(=O)C(C(C)=O)C(=O)OC(C)(C)C)cc1 (centres undefined) : 94 to 96 °C

In the following, a different molecule is considered.
Item CSc1c(C#N)nn(-c2c(Cl)cc(C(F)(F)F)cc2Cl)c1N(C)C has what recorded melting point?
118 to 119 °C

* * *

Quick reference for melting point among some molecules

// known answers, use as guide
CCOC(=O)/C=C/c1cn(C)c2ccccc12 : 94 to 98 °C
CN(C)C=NS(=O)(=O)c1cc(CCNC(=O)C(F)(F)F)ccc1OCC(F)(F)F : 130 °C
CC(C)CC(CS)C(=O)NCC(=O)NCC(=O)O (stereo unspecified) : 152 to 156 °C
CNc1nc(C)cc(-n2ccc3ccccc32)n1 : 160 to 162 °C

Item CCOC(=O)c1c(C(F)(F)F)nc(C(F)(F)F)c(C(=O)O)c1OCC has what recorded melting point?
115 to 117 °C

What about O=Cc1cc(O)c(O)cc1Cl ?
217 to 218 °C

What about Cn1nc2nc(C(C)(C)C)[nH]c(=O)c2c1N=Cc1ccccc1 ?
250 to 253 °C

* * *

Quick reference for melting point among some compounds

// known answers, use as guide
Cc1ccc(C(=O)OC2CCN(Cc3ccccc3[N+](=O)[O-])CC2)cc1 : 86 to 87 °C
CCOc1nc(NC(CC)CC)c([N+](=O)[O-])c(OCC)n1 : 38 to 40 °C
Cc1sc(N)c(C(=O)c2ccsc2)c1C : 122 to 123 °C
COC(=O)c1ccc(Cl)cc1OS(C)(=O)=O : 82.5 to 84.5 °C
COc1cc(N)c(Cl)cc1C(=O)N[C@@H]1CCN(CCCOc2ccc(F)cc2)C[C@H]1F (relative stereo) : 125 °C

Item Nc1cc(C2=NOC(c3cc(Cl)cc(Cl)c3)(C(F)(F)F)C2)ccc1-n1cncn1 (stereo not given) has what recorded melting point?
244 to 246 °C

What about CS(=O)(=O)OCC(CC1CCCCC1)c1ccc(Cl)cc1Cl (stereo not given) ?
105 °C

What about c1ccc(N2CCN(Cc3nc4ccccc4[nH]3)CC2)nc1 ?
220 to 221 °C

What about CC(C)(C)OC(=O)NCCn1cc(COc2ccc(C3=NC(=Nc4[nH]c(-c5ccc(O)cc5)cc4-c4ccccc4)C(c4ccccc4)=C3)cc2)nn1 ?
128 to 130 °C

What about CCCc1nc(C#N)c(C#N)nc1Oc1ccccc1 ?
130 to 132 °C

Hey, just so you know, these numbers are from a melting point compilation (Tetko et al.; mined from patent text by program, amines drawn as free bases though some values may be those of a salt).
